test: activity coefficient (dimensionless); of the first substance listed, at infinite dilution; xn = mol fraction of the nth substance listed; settings: 343.15 K; 101 kPa; Liquid; Chromatography; x1 = 0
test_readout: activity coefficient

>>> measured_number("ClCCCl [1,2-dichloroethane] + CCCCCCn1cc[n+](C)c1.O=C([O-])C(F)(F)F")
1.26
>>> measured_number("CC(C)CO [2-methyl-1-propanol] + CCCCCCn1cc[n+](C)c1.O=C([O-])C(F)(F)F")
0.3
>>> measured_number("CC(C)=O [acetone] + CCCCCCn1cc[n+](C)c1.O=C([O-])C(F)(F)F")
1.67

====

assay: activity coefficient (dimensionless); of the first substance listed, at infinite dilution; xn = mol fraction of the nth substance listed; conditions: 363.15 K; 101 kPa; Liquid; Chromatography; x1 = 0
Records here are stratified by activity coefficient; strata: low-valued: < 1; mid-valued: ≥ 1 and < 2; high-valued: ≥ 2

>>> cat("Cc1ccccc1C [1,2-dimethylbenzene] + CCCCCCn1cc[n+](C)c1.O=C([O-])C(F)(F)F")
"high-valued"
>>> cat("CC(C)CO [2-methyl-1-propanol] + CCCCCCn1cc[n+](C)c1.O=C([O-])C(F)(F)F")
"low-valued"
>>> cat("CO [methanol] + CCCCCCn1cc[n+](C)c1.O=C([O-])C(F)(F)F")
"low-valued"
>>> cat("Cc1cccc(C)c1 [1,3-dimethylbenzene] + CCCCCCn1cc[n+](C)c1.O=C([O-])C(F)(F)F")
"high-valued"
>>> cat("CCCO [propan-1-ol] + CCCCCCn1cc[n+](C)c1.O=C([O-])C(F)(F)F")
"low-valued"
>>> cat("ClCCCl [1,2-dichloroethane] + CCCCCCn1cc[n+](C)c1.O=C([O-])C(F)(F)F")
"mid-valued"
>>> cat("Cc1ccccc1 [toluene] + CCCCCCn1cc[n+](C)c1.O=C([O-])C(F)(F)F")
"high-valued"
>>> cat("c1ccccc1 [benzene] + CCCCCCn1cc[n+](C)c1.O=C([O-])C(F)(F)F")
"high-valued"
>>> cat("ClC(Cl)(Cl)Cl [tetrachloromethane] + CCCCCCn1cc[n+](C)c1.O=C([O-])C(F)(F)F")
"mid-valued"
>>> cat("ClCCl [dichloromethane] + CCCCCCn1cc[n+](C)c1.O=C([O-])C(F)(F)F")
"low-valued"
>>> cat("CCO [ethanol] + CCCCCCn1cc[n+](C)c1.O=C([O-])C(F)(F)F")
"low-valued"
>>> cat("C=Cc1ccccc1 [styrene] + CCCCCCn1cc[n+](C)c1.O=C([O-])C(F)(F)F")
"high-valued"
>>> cat("CC(C)O [propan-2-ol] + CCCCCCn1cc[n+](C)c1.O=C([O-])C(F)(F)F")
"low-valued"
>>> cat("CC#N [acetonitrile] + CCCCCCn1cc[n+](C)c1.O=C([O-])C(F)(F)F")
"mid-valued"
>>> cat("Clc1ccccc1 [chlorobenzene] + CCCCCCn1cc[n+](C)c1.O=C([O-])C(F)(F)F")
"high-valued"
>>> cat("ClC(Cl)Cl [trichloromethane] + CCCCCCn1cc[n+](C)c1.O=C([O-])C(F)(F)F")
"mid-valued"
>>> cat("Brc1ccccc1 [bromobenzene] + CCCCCCn1cc[n+](C)c1.O=C([O-])C(F)(F)F")
"high-valued"
>>> cat("CC(C)=O [acetone] + CCCCCCn1cc[n+](C)c1.O=C([O-])C(F)(F)F")
"mid-valued"

====

assay: activity coefficient (dimensionless); of the first substance listed, at infinite dilution; xn = mol fraction of the nth substance listed; conditions: 323.15 K; 101 kPa; Liquid; Chromatography; x1 = 0
Documented activity coefficient across a set of molecules
test_readout: activity coefficient

>>> result("C1CCOC1 [tetrahydrofuran] + CCCCCCn1cc[n+](C)c1.O=C([O-])C(F)(F)F")
1.98
>>> result("C1=CCCCC1 [cyclohexene] + CCCCCCn1cc[n+](C)c1.O=C([O-])C(F)(F)F")
9.6
>>> result("C1CCCCC1 [cyclohexane] + CCCCCCn1cc[n+](C)c1.O=C([O-])C(F)(F)F")
16.9
>>> result("CC(C)O [propan-2-ol] + CCCCCCn1cc[n+](C)c1.O=C([O-])C(F)(F)F")
0.36
>>> result("ClC(Cl)(Cl)Cl [tetrachloromethane] + CCCCCCn1cc[n+](C)c1.O=C([O-])C(F)(F)F")
0.8
>>> result("CC(C)CC(C)(C)C [2,2,4-trimethylpentane] + CCCCCCn1cc[n+](C)c1.O=C([O-])C(F)(F)F")
46.8
>>> result("CC(C)CO [2-methyl-1-propanol] + CCCCCCn1cc[n+](C)c1.O=C([O-])C(F)(F)F")
0.29
>>> result("CCCO [propan-1-ol] + CCCCCCn1cc[n+](C)c1.O=C([O-])C(F)(F)F")
0.25
>>> result("Brc1ccccc1 [bromobenzene] + CCCCCCn1cc[n+](C)c1.O=C([O-])C(F)(F)F")
2.24
>>> result("Cc1cccc(C)c1 [1,3-dimethylbenzene] + CCCCCCn1cc[n+](C)c1.O=C([O-])C(F)(F)F")
4.34
>>> result("Cc1ccccc1C [1,2-dimethylbenzene] + CCCCCCn1cc[n+](C)c1.O=C([O-])C(F)(F)F")
3.83
>>> result("CCCCCCCCC [nonane] + CCCCCCn1cc[n+](C)c1.O=C([O-])C(F)(F)F")
64.2
>>> result("C1COCCO1 [1,4-dioxane] + CCCCCCn1cc[n+](C)c1.O=C([O-])C(F)(F)F")
1.93
